Data provenance: PubChem BioAssay

assay: small-molecule microarray binders of probe aLefty2, primary screen, biochemical, biotinylated probe, 635/667 nm fluorescence (AID 1094); conditions: higher = more signal;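 also: score merges spot fluorescence near 667 nm with spot signal-to-noise ratio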
composite z-score values by entry

{"columns": ["COMPOUND", "composite z-score"],
 "data": [
  ["O=c1n(-c2ccccc2)c(=O)n2n1CC(COc1ccccc1)=C1[C@@H](CCc3ccccc3)OB(O)C[C@@H]12", -0.133],
  ["O=C(NO)[C@]1(Cc2ccccc2)N=C(c2ccc(OCCCO)cc2)O[C@@H]1c1ccccc1", 0.0204],
  ["C/C=C/[C@@H](CCn1cc(CCO[Si](C(C)C)(C(C)C)C(C)C)nn1)[Si](C)(C)c1ccc(OC)cc1", -0.275],
  ["COCCCNC(=O)[C@@]1(CCS(=O)(=O)c2ccccc2)N=C(c2ccc(OCCCO)cc2)O[C@H]1c1ccccc1CN=[N+]=[N-]", 0.568],
  ["COc1ccc(/C=C/C(=O)c2cccc(OCC(=O)OC(C)(C)C)c2)cc1", -0.102],
  ["CC(C)C(=C=CC[C@H](O)c1ccc(OCCO)cc1)C[C@H](O)COCc1ccccc1", -0.119],
  ["CC(C)C[C@@H]1NC(=O)[C@@]23C(=O)N[C@@H](Cc4ccccc4)C2[C@H](C)[C@@]2(C)O[C@H]2C3/C=C/CC/C=C/CNC(=O)[C@@H](C)NC1=O (stereo partly drawn)", -0.19],
  ["C=CCNC(=O)[C@H]1[C@@H]2C(=O)O[C@@H](c3ccccc3)[C@@H](c3ccccc3)N2[C@@H](c2ccc(OCCO)cc2)[C@]12C(=O)Nc1ccc(C#CCCO)cc12", -0.148],
  ["O=C(O)[C@H]1C[C@H]2C(=O)NCC(=O)N2[C@H]1c1cccc(OCCO)c1", 0.0889],
  ["CO[C@H]1O[C@H](CO)[C@@H](OC(=O)CCc2ccccc2)[C@@H]2OC(=O)[C@H](Cc3ccccc3)C/C=C/C[C@@H](Cc3ccccc3)C(=O)O[C@@H]12", -0.0905],
  ["COc1ccc([Si](C)(C)[C@H]2[C@H](CC(=O)N(CCO)Cc3ccccc3)O[C@@]3(C(=O)N(Cc4cccc(N5C(=O)COc6ccccc65)c4)c4ccccc43)[C@@H]2C)cc1", -0.0846],
  ["O=C1O[C@H](c2ccccc2)[C@H](c2ccccc2)N2[C@H]1[C@@H](C(=O)Nc1nc3ccccc3s1)[C@]1(C(=O)Nc3ccc(C#CCCO)cc31)[C@H]2c1ccccc1OCCO", 0.0459],
  ["C=CCC(OC(C)=O)[C@@H]1[C@@H](N(Cc2ccc(-c3cccc(C(F)(F)F)c3)o2)C(=O)c2ccc(-c3ccccc3)cc2)c2cc(OCCCO)ccc2N1C(=O)Cc1ccc(OC)cc1 (stereo partly drawn)", 0.0236],
  ["C=C(/C(=C/C[C@H](OC(=O)c1ccncc1)c1cccc(OCCO)c1)c1cc(C(=O)OC)ccc1OC)C(C)C", -0.192],
  ["C=CCN1C(=O)[C@@]2(O[C@@H](CCn3cc(CCO)nn3)[C@H]([Si](C)(C)c3ccc(OC)cc3)[C@H]2C)c2cc(N3C(=O)c4cccc5cccc3c45)ccc21", -0.0592],
  ["C=CCNC(=O)[C@@H]1[C@H]2C(=O)O[C@H](c3ccccc3)[C@H](c3ccccc3)N2[C@H](c2ccc(O)cc2)[C@@]12C(=O)N(C(=O)OCCOC)c1ccc(C#Cc3ccc(OC)cc3)cc12", -0.111],
  ["C=C(/C(=C/C[C@H](OC(C)=O)c1cccc(OCCO)c1)c1cc(C(=O)OC)ccc1OC)C(C)C", -0.189],
  ["C=C(C(=O)CC[C@H](OC(C)=O)c1ccc(CO)o1)C(C)C", -0.127],
  ["C#CCN1C(C(=O)OCC)OC[C@H]1c1ccccc1 (stereo partly drawn)", -0.205],
  ["C#CCOc1ccc(C[C@H]2C(=O)O[C@H](Cc3ccccc3)[C@H](/C=C/C3CC3)N2CC#C)cc1", -0.139],
  ["CN1C=C(C(=O)OCCS(C)(=O)=O)C(C(=O)OCCS(C)(=O)=O)=CC(CCCO)=CC1c1cccs1 (stereo not drawn)", 0.022],
  ["CC(C)C[C@@H]1NC(=O)[C@@]23C(=O)N[C@@H](Cc4ccccc4)C2[C@H](C)[C@@]2(C)O[C@H]2C3/C=C/C/C=C\\CNC(=O)[C@H](Cc2ccccc2)NC1=O (stereo partly drawn)", -0.202],
  ["COC(=O)C1=CC(c2ccc(CO)cc2)=CC(c2cccs2)N(C)C=C1C(=O)OC (stereo not drawn)", 0.0094],
  ["COc1ccc([Si](C)(C)[C@H]2[C@H](CC(=O)N(CCO)Cc3ccccc3)O[C@@]3(C(=O)N(Cc4ccc(N5CCC5=O)cc4)c4ccccc43)[C@@H]2C)cc1", -0.166],
  ["CC(C)(C)OC(=O)CC[C@@]12N=C(c3ccc(OCCCO)cc3)O[C@@H]1c1ccccc1CN(Cc1ccccc1)C2=O", -0.0664],
  ["C=CCN1C(=O)[C@@]2(O[C@@H](CCO)[C@H]([Si](C)(C)c3ccc(OC)cc3)[C@H]2C)c2cc(N3C(=O)c4cccc5cccc3c45)ccc21", -0.156],
  ["CCCCC(=C=CC[C@@H](O)c1ccc(OCCO)cc1)C[C@@H](O)c1cc(Cl)cc(Cl)c1O", -0.057],
  ["COc1ccc([Si](C)(C)[C@H]2[C@H](CC(=O)N(CCO)Cc3ccccc3)O[C@@]3(C(=O)N(Cc4ccc(N5CCOC5=O)cc4)c4ccccc43)[C@@H]2C)cc1", -0.0595]
]}

----------
test: RPMI8226 myeloma cell viability, profiling panel, resazurin fluorescence, basal, 24 h, PK04 Diversity Set (AID 1180); settings: higher = more signal;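 also: RPMI8826 multiple myeloma cell line at 5000 cells per well; test concentration not given here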
Where z-score equals or exceeds 0.6, the correct label is Fulfilled; where it does not, the label is Not fulfilled.

{"columns": ["COMPOUND", "CATEGORY_LABEL"],
 "data": [
  ["COC(=O)C1=CC(CCCO)=CC(C2CC2)N(Cc2cc3c(cc2Br)OCO3)C=C1C(=O)OC (centres undefined)", "Fulfilled"],
  ["C[N+](C)(C)CCCCNC(=O)[C@@H]1C[C@@H]2C(=O)NCC(=O)N2[C@@H]1c1cccc(OCCO)c1", "Not fulfilled"],
  ["C[N+](C)(C)CCCC[C@@H]1NC(=O)[C@H]2C[C@@H](C(=O)NCCCCCN)[C@@H](c3cccc(OCCO)c3)N2C1=O", "Fulfilled"],
  ["COC(=O)C(CC#Cc1ccc2c(c1)[C@]1(C(=O)N2)[C@H](C(=O)O)[C@H]2C(=O)O[C@H](c3ccccc3)[C@H](c3ccccc3)N2[C@@H]1c1ccc(OCCO)cc1)C(=O)OC", "Not fulfilled"],
  ["C=C(CCCC)/C(=C/C[C@H](OC(=O)c1ccncc1)c1ccc(CO)o1)c1cnc2ccccc2c1", "Fulfilled"],
  ["COc1ccc([Si](C)(C)[C@H]2[C@H](CC(=O)N(CCO)Cc3ccccc3)O[C@@]3(C(=O)N(Cc4ccc(N5CCC5=O)cc4)c4ccccc43)[C@@H]2C)cc1", "Not fulfilled"],
  ["CCCCCN1CC=CC23O[C@@H]4/C=C\\CCC(C)OC(=O)C4[C@H]2C(=O)N(CCO)[C@@H]3C1=O (some centres undefined)", "Fulfilled"],
  ["CCOC(=O)C[C@H]1[C@H](OC(=O)c2cc3ccccc3oc2=O)[C@@H](NC(=O)c2ccccc2)c2cc(OCCCO)ccc2N1C(=O)Cc1ccc(OC)cc1", "Fulfilled"],
  ["CO[C@H]1O[C@H](CO)[C@@H](OC(=O)Nc2ccccc2)[C@H](OC(=O)Nc2ccc3c(c2)OCO3)[C@H]1OC(=O)Nc1ccc2c(c1)OCO2", "Not fulfilled"],
  ["CC(=O)NCCCC[C@@H]1NC(=O)[C@@H]2C[C@H](C(=O)O)[C@H](c3cccc(OCCO)c3)N2C1=O", "Fulfilled"],
  ["C=C(COC)C(=O)CC[C@@H](OC(=O)c1ccccc1-c1ccccc1C(=O)O)c1cccc(OCCO)c1", "Not fulfilled"],
  ["C=CCC(OC(C)=O)[C@@H]1[C@@H](N(Cc2cc3ccccc3o2)C(=O)c2ccc(-c3ccccc3)cc2)c2cc(OCCCO)ccc2N1C(=O)c1ccc(-c2ccccc2)cc1 (some centres undefined)", "Fulfilled"],
  ["COCCOC(=O)N1C(=O)[C@@]2(c3cc(C#CCNC(N)=O)ccc31)[C@H](c1ccccc1OCCO)N1[C@H](c3ccccc3)[C@H](c3ccccc3)OC(=O)[C@H]1[C@@H]2C(=O)Nc1nc2ccccc2s1", "Fulfilled"]
]}

----------
test: Plasmodium falciparum growth inhibition, primary screen, strain 3D7, DAPI fluorescence, 100 nL (AID 1184);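 also: parasites grown inside human red blood cells in medium with human serum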; conditions: P. falciparum 3D7 growth, 3 d, higher = more signal

{"columns": ["COMPOUND", "z-score"],
 "data": [
  ["CCOC(=O)C[C@H]1[C@H](OC(=O)c2ccc(C(=O)c3ccccc3)cc2)[C@@H](NC(=O)Cc2ccc(OC)cc2)c2cc(OCCCO)ccc2N1C(=O)Cc1ccc(OC)cc1", -0.283],
  ["C=CCC(OC(C)=O)[C@@H]1[C@@H](N(Cc2cc3ccccc3o2)C(=O)c2ccc(-c3ccccc3)cc2)c2cc(OCCCO)ccc2N1C(=O)c1ccc(-c2ccccc2)cc1 (stereo partly drawn)", -1.63],
  ["COC(=O)C1=CC(CCCO)=CC(C2CC2)N(Cc2cc3c(cc2Br)OCO3)C=C1C(=O)OC (stereo not drawn)", -0.963]
]}
